Tested on: SF-295
test.protocol: NCI tumour cell line growth inhibition, 48 h
Activity calls are given as the source filed them. No stated cut-off is given here; in the data, active = GI50 up to about 1.1 µM and inactive = higher.
Labels: active, inactive

{"columns": ["compound", "category"],
 "data": [
  ["Cc1ccc(S(=O)(=O)N/N=C(\\c2nc3ccc(Cl)cc3nc2O)C(O)c2cccc([N+](=O)[O-])c2)cc1 (stereo not given)", "inactive"],
  ["N#C/C(=C/N1C(=O)/C(=C/c2ccc([N+](=O)[O-])cc2)SC1=S)c1nc2ccccc2s1", "inactive"],
  ["COc1cc(-c2cc(=O)c3c(O)c(OC)c(OC)c(OC)c3o2)ccc1O", "inactive"],
  ["CN(C)c1ccc(/C=C/C(=O)c2cc(C(C)(C)C)c(O)c(C(C)(C)C)c2)cc1", "active"],
  ["CCCCn1c(C)c(C(=O)OCC)s/c1=N/Nc1nc2ccccc2nc1-c1ccccc1", "inactive"]
]}
